- experimental_system: TRAP1 enzyme (Homo sapiens)
- Sequence (Q12931 60-704): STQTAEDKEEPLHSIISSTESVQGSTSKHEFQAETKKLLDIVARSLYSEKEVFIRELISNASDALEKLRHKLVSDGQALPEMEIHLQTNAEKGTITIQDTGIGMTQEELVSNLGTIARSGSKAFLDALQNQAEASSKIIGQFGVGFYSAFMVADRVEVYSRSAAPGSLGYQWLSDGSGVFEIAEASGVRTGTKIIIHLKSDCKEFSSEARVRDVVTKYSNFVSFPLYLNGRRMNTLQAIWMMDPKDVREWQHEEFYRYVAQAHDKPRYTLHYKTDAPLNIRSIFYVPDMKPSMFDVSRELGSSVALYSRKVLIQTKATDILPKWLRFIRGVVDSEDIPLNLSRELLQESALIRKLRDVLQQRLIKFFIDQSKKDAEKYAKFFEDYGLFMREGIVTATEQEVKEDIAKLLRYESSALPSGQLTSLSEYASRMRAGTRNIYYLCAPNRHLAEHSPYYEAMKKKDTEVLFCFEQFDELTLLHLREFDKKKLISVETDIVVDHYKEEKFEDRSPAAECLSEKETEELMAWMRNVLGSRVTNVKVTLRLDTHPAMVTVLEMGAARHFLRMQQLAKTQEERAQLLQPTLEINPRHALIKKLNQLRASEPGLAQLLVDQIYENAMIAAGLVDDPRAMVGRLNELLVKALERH
- test_description: ADP Glo assay of TRAP1 ATPase activity
- Assay type: biochemical
- settings: read-out: ADP GLO DRC: Mean Emax
So I've got a bunch of molecules here, and I need their Emax values.

>>> print(df.to_string())
                           smiles_structure      reading
0  COc1ccc(NC(=O)c2cncc(Br)c2C)cc1S(=O)(=O)Nc1c(C)cccc1C  200 to 300%
1  COc1ccc(NC(=O)c2cnc(-c3ccccc3)[nH]2)cc1S(=O)(=O)Nc1c(C)cc(Cl)cc1C  160 to 199%
2  CCCn1cc(C(=O)Nc2ccc(F)c(S(=O)(=O)Nc3ccc(Cl)cc3)c2)cn1  200 to 300%
3  COc1ccc(NC(=O)c2ocnc2C(C)C)cc1S(=O)(=O)Nc1ccc(Cl)cc1  160 to 199%

Here are 7 molecules. What values of Emax were reported for them?
1. Cc1ncc(Br)cc1C(=O)Nc1ccc(F)c(S(=O)(=O)Nc2ccc(Cl)cc2)c1
2. COc1ccc(NC(=O)c2scc(C)c2Cl)cc1S(=O)(=O)Nc1c(C)cccc1C
3. COc1ccc(NC(=O)c2ccc3c(c2)n(C)c(=O)n3C)cc1S(=O)(=O)Nc1c(C)cccc1C
4. COc1ccc(NC(=O)c2cccc(OC3CCOCC3)n2)cc1S(=O)(=O)Nc1c(C)cccc1C
5. COc1ccc(NC(=O)c2csc(-c3ccccc3)n2)cc1S(=O)(=O)Nc1c(C)cccc1C
6. O=C(Nc1ccc(F)c(S(=O)(=O)Nc2ccc(Cl)cc2)c1)c1cccc2c1OC(F)(F)O2
7. CCCN1CCN(c2ccc(C(=O)Nc3ccc(OC)c(S(=O)(=O)Nc4c(C)cccc4C)c3)cc2)CC1

Result ::
["160 to 199%", "160 to 199%", "200 to 300%", "200 to 300%", "160 to 199%", "123 to 159%", "160 to 199%"]

Here are 5 molecules. What values of Emax were reported for them?
1. COc1ccc(NC(=O)c2nc(-c3ccccc3)oc2C)cc1S(=O)(=O)Nc1c(C)cccc1C
2. COc1ccc(NC(=O)c2ccn(-c3ccccc3)n2)cc1S(=O)(=O)Nc1c(C)cccc1C
3. COc1ccc(NC(=O)c2cnoc2C2CC2)cc1S(=O)(=O)Nc1c(C)cccc1C
4. COc1ccc(NC(=O)c2cn(Cc3ccccc3)nn2)cc1S(=O)(=O)Nc1c(C)cccc1C
5. COc1ccc(NC(=O)c2csc(-c3cccs3)n2)cc1S(=O)(=O)Nc1c(C)cccc1C

Result ::
1. 123 to 159%
2. 200 to 300%
3. 160 to 199%
4. 200 to 300%
5. 160 to 199%

Here are 8 molecules. What values of Emax were reported for them?
1. COc1ccc(NC(=O)c2sc(Br)nc2C)cc1S(=O)(=O)Nc1c(C)cccc1C
2. COc1ccc(NC(=O)c2cc(-c3ccccc3)[nH]n2)cc1S(=O)(=O)Nc1c(C)cccc1C
3. COc1ccc(NC(=O)c2ncc(OC(F)F)cc2Cl)cc1S(=O)(=O)Nc1c(C)cccc1C
4. COc1ccc(NC(=O)c2c(C)cc(Cl)nc2Cl)cc1S(=O)(=O)Nc1c(C)cccc1C
5. COc1ccc(NC(=O)c2ncc(-c3ccccc3)o2)cc1S(=O)(=O)Nc1c(C#N)cccc1C(F)(F)F
6. COc1ccc(NC(=O)c2ccc(Cl)nc2C)cc1S(=O)(=O)Nc1c(C)cccc1C
7. COc1ccc(NC(=O)c2cccc(-c3cnco3)c2)cc1S(=O)(=O)Nc1c(C)cccc1C
8. COc1ccc(NC(=O)c2c(-c3ccccc3)noc2C)cc1S(=O)(=O)Nc1c(C)cccc1C

Result ::
["200 to 300%", "200 to 300%", "123 to 159%", "160 to 199%", "200 to 300%", "160 to 199%", "160 to 199%", "200 to 300%"]
